Organism: Rattus norvegicus
Assay: Open TG-GATES - Regimen: Single
Format: toxicity, organism-based, Sprague-Dawley
Design: regimen Single, gender Male, age 6 weeks
Conditions: in vivo, po, 30 mg/kg, 3 h, tissue Plasma, route gavage, dose level Middle
The entries below are paired with their reported TBIL.
Unit mg/dL implied. Number only.

// known answers, use as guide
>>> print(df.to_string())
                           smiles_structure  readout_type  reported
0             CN(C)CCCN1c2ccccc2CCc2ccccc21          TBIL     0.058
1  CC1=C(/C=C/C(C)=C/C=C/C(C)=C/CO)C(C)(C)CCC1          TBIL     0.004

Documented TBIL of CN(C)CCN(Cc1cccs1)c1ccccn1 : 0.016

Documented TBIL of CN(C)CCCN1c2ccccc2CCc2ccc(Cl)cc21 : 0.062
